Test system: U937 cells (human monocytic cell line)
Assay: Pam2CSK4-induced TNF-α secretion inhibition in PMA-differentiated U937 cells
Assay type: cell-based
Conditions: U-937, U937 cells differentiated with PMA, read-out: TNF-α production inhibition grade (IC50)
pIC50: −log10 of the molar value.

- Compound Structure String: "C[C@H](CCC(=O)N(C)CCS(=O)(=O)O)[C@H]1CC[C@H]2[C@@H]3CC[C@@H]4C[C@H](O)CC[C@]4(C)[C@H]3C[C@H](O)[C@]12C"
  Assay System: "U937 cells (human monocytic cell line)"
  pIC50: "6.00 to 6.30"
- Compound Structure String: "C[C@H](CCC(=O)N(CCN(C)C)CCS(=O)(=O)O)[C@H]1CC[C@H]2[C@@H]3CC[C@@H]4CC(=O)CC[C@]4(C)[C@H]3CC[C@]12C"
  Assay System: "U937 cells (human monocytic cell line)"
  pIC50: "6.00 to 6.30"
- Compound Structure String: "C[C@H](CCC(=O)N1CCC[C@@H](S(=O)(=O)O)C1)[C@H]1CC[C@H]2[C@@H]3[C@H](O)C[C@@H]4C[C@H](O)CC[C@]4(C)[C@H]3C[C@H](O)[C@]12C"
  Assay System: "U937 cells (human monocytic cell line)"
  pIC50: "5.70 to 6.00"
- Compound Structure String: "C[C@H](CCC(=O)N(CCS(=O)(=O)O)CC(N)=O)[C@H]1CC[C@H]2[C@@H]3CC[C@@H]4C[C@H](O)CC[C@]4(C)[C@H]3C[C@H](O)[C@]12C"
  Assay System: "U937 cells (human monocytic cell line)"
  pIC50: "5.70 to 6.00"
- Compound Structure String: "C[C@H](CCC(=O)N1CC(S(=O)(=O)O)C1)[C@H]1CC[C@H]2[C@@H]3CC[C@@H]4C[C@H](O)CC[C@]4(C)[C@H]3CC[C@]12C"
  Assay System: "U937 cells (human monocytic cell line)"
  pIC50: "6.00 to 6.30"
- Compound Structure String: "CC(C)C[C@H](CS(=O)(=O)O)NC(=O)CC[C@@H](C)[C@H]1CC[C@H]2[C@@H]3CC[C@@H]4C[C@H](O)CC[C@]4(C)[C@H]3CC[C@]12C"
  Assay System: "U937 cells (human monocytic cell line)"
  pIC50: "6.00 to 6.30"
- Compound Structure String: "C[C@H](CCC(=O)N[C@@H](Cc1ccccc1)CS(=O)(=O)O)[C@H]1CC[C@H]2[C@@H]3[C@H](O)C[C@@H]4C[C@H](O)CC[C@]4(C)[C@H]3C[C@H](O)[C@]12C"
  Assay System: "U937 cells (human monocytic cell line)"
  pIC50: "6.00 to 6.30"
- Compound Structure String: "CC[C@H]1[C@@H](O)[C@@H]2[C@H](CC[C@]3(C)[C@@H]([C@H](C)CCC(=O)N[C@@H]4CCCC[C@@H]4S(=O)(=O)O)CC[C@@H]23)[C@@]2(C)CC[C@@H](O)C[C@@H]12"
  Assay System: "U937 cells (human monocytic cell line)"
  pIC50: "6.00 to 6.30"
- Compound Structure String: "C[C@H](CCC(=O)NCCC(=O)O)[C@H]1CC[C@H]2[C@@H]3[C@H](O)C[C@@H]4C[C@H](O)CC[C@]4(C)[C@H]3C[C@H](O)[C@]12C"
  Assay System: "U937 cells (human monocytic cell line)"
  pIC50: "≤ 5.70"
- Compound Structure String: "C[C@H](CCC(=O)N1CCC[C@@H]1CS(=O)(=O)O)[C@H]1CC[C@H]2[C@@H]3CC[C@@H]4C[C@H](O)CC[C@]4(C)[C@H]3CC[C@]12C"
  Assay System: "U937 cells (human monocytic cell line)"
  pIC50: "≤ 5.70"
- Compound Structure String: "C[C@H](CCC(=O)N[C@@H](CS(=O)(=O)O)c1ccccc1)[C@H]1CC[C@H]2[C@@H]3CC[C@@H]4C[C@H](O)CC[C@]4(C)[C@H]3C[C@H](O)[C@]12C"
  Assay System: "U937 cells (human monocytic cell line)"
  pIC50: "6.00 to 6.30"
- Compound Structure String: "CC[C@H]1[C@@H](O)[C@@H]2[C@H](CC[C@]3(C)[C@@H]([C@H](C)CCC(=O)N[C@@H](CS(=O)(=O)O)C(C)C)CC[C@@H]23)[C@@]2(C)CC[C@@H](O)C[C@@H]12"
  Assay System: "U937 cells (human monocytic cell line)"
  pIC50: "6.00 to 6.30"
- Compound Structure String: "C[C@H](CCC(=O)Nc1ccc(S(=O)(=O)O)cc1)[C@H]1CC[C@H]2[C@@H]3CC[C@@H]4C[C@H](O)CC[C@]4(C)[C@H]3C[C@H](O)[C@]12C"
  Assay System: "U937 cells (human monocytic cell line)"
  pIC50: "> 6.30"
- Compound Structure String: "C[C@H](CCC(=O)N1CCN(CCS(=O)(=O)O)CC1)[C@H]1CC[C@H]2[C@@H]3CC[C@@H]4C[C@H](O)CC[C@]4(C)[C@H]3C[C@H](O)[C@]12C"
  Assay System: "U937 cells (human monocytic cell line)"
  pIC50: "> 6.30"
- Compound Structure String: "C[C@H](CCC(=O)N[C@H](CO)CS(=O)(=O)O)[C@H]1CC[C@H]2[C@@H]3[C@H](O)C[C@@H]4C[C@H](O)CC[C@]4(C)[C@H]3C[C@H](O)[C@]12C"
  Assay System: "U937 cells (human monocytic cell line)"
  pIC50: "≤ 5.70"
- Compound Structure String: "CC[C@H]1[C@@H](O)[C@@H]2[C@H](CC[C@]3(C)[C@@H]([C@H](C)CCC(=O)N[C@H](Cc4ccccc4)CS(=O)(=O)O)CC[C@@H]23)[C@@]2(C)CC[C@@H](O)C[C@@H]12"
  Assay System: "U937 cells (human monocytic cell line)"
  pIC50: "6.00 to 6.30"
- Compound Structure String: "C[C@H](CCC(=O)NC[C@H](C)S(=O)(=O)O)[C@H]1CC[C@H]2[C@@H]3CC[C@@H]4C[C@H](O)CC[C@]4(C)[C@H]3CC[C@]12C"
  Assay System: "U937 cells (human monocytic cell line)"
  pIC50: "> 6.30"
- Compound Structure String: "C[C@H](CCC(=O)NCCCS(=O)(=O)O)[C@H]1CC[C@H]2[C@@H]3CC[C@@H]4C[C@H](O)CC[C@]4(C)[C@H]3C[C@H](O)[C@]12C"
  Assay System: "U937 cells (human monocytic cell line)"
  pIC50: "> 6.30"
- Compound Structure String: "CC(C)C[C@H](CS(=O)(=O)O)NC(=O)CC[C@@H](C)[C@H]1CC[C@H]2[C@@H]3CC[C@@H]4CC(=O)CC[C@]4(C)[C@H]3CC[C@]12C"
  Assay System: "U937 cells (human monocytic cell line)"
  pIC50: "6.00 to 6.30"

Data origin, for the record: patent US20240391948A1
